tested on: MDA-MB-435; assay: NCI tumour cell line growth inhibition, 48 h
Each entry below lists one item and its recorded TGI value.
REPORTED ENDPOINT: TGI (µM)

[[record]]
compound = "OC1CC2CCCN(CCc3c1[nH]c1ccccc31)C2 (centres undefined)"
reported_endpoint = "TGI"
inequality_sign = ">"
reported_result = 100

[[record]]
compound = "CNC(=O)N(C1=NCC(C)S1)c1ccc(C)c(C)c1 (centres undefined)"
reported_endpoint = "TGI"
inequality_sign = "="
reported_result = 3.49

[[record]]
compound = "Cc1nc2cc(-n3c(-c4ccc(F)cc4)nc4ccccc4c3=O)ccc2n1Cc1ccccc1"
reported_endpoint = "TGI"
inequality_sign = "="
reported_result = 4.21

[[record]]
compound = "CNC(=O)C(C)C1C(=O)/C(=C(O)/C=C\\C(C)=C\\C(C)C2OC3(C)OC(C=CC34CO4)C2C)C(=O)N1C1CCC(O)C(C)O1 (centres undefined)"
reported_endpoint = "TGI"
inequality_sign = ">"
reported_result = 100

[[record]]
compound = "CN1CCN(CCn2c3c4ccccc4ccc3c3oc(=O)c4ccccc4c32)CC1"
reported_endpoint = "TGI"
inequality_sign = "="
reported_result = 3.35

[[record]]
compound = "CN(C)CCCN1c2ccccc2CCc2cccc([N+](=O)[O-])c21"
reported_endpoint = "TGI"
inequality_sign = "="
reported_result = 30.3

[[record]]
compound = "Cn1cc(C2=C(c3cn(CCSC(=N)N)c4ccccc34)C(=O)NC2=O)c2ccccc21"
reported_endpoint = "TGI"
inequality_sign = "="
reported_result = 5.25

[[record]]
compound = "N#CC(=N)c1ncn(CCO)c1NC(=O)C(F)(F)F"
reported_endpoint = "TGI"
inequality_sign = ">"
reported_result = 100

[[record]]
compound = "CCOC(=O)c1cc2c(c3ccsc13)C1(C)CCC3c4ccc(OC)cc4CCC3C1C2 (centres undefined)"
reported_endpoint = "TGI"
inequality_sign = ">"
reported_result = 100


FYI, the data here is from PubChem BioAssay (NCI).
